target_entity: bilirubin oxidase from a strain belonging to the genus Myrothecium (Albifimbria verrucaria, UniProt Q12737)
Sequence (Q12737 39-572): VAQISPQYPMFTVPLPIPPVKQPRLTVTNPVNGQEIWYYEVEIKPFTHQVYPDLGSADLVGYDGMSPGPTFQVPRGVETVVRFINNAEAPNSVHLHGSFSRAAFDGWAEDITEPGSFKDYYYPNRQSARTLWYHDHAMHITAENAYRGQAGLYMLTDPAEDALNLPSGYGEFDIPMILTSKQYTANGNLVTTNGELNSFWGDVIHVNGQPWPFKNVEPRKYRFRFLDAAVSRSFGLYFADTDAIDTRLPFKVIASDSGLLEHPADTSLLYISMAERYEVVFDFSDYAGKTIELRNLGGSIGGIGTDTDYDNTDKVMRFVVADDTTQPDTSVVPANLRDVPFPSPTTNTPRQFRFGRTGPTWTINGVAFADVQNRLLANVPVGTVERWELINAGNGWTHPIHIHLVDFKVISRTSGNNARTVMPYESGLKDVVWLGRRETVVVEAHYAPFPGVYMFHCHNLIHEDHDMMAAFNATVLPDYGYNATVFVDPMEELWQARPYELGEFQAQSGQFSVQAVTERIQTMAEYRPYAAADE
method: Decolorization / degradation / polymerization of pigments and lignin by bilirubin oxidase (comparison)
Assay type: biochemical
run_parameters: reaction pH 8.0; without sign = degradation or decolorization, minus = polymerization activity
measure_name: Specific Activity, Bilirubin Oxidase from Strain Belonging to Genus Myrothecium (U/mg Protein)
Only the number, expressed in U/mg Protein, is required.

Query string: What Specific Activity, Bilirubin Oxidase from Strain Belonging to Genus Myrothecium value was documented for this compound, O=C1C=C(O)C(=O)c2ccccc21 ?
Result string: −0.11

Query string: What Specific Activity, Bilirubin Oxidase from Strain Belonging to Genus Myrothecium value was documented for this compound, Cc1cc(-c2ccc(/N=N/c3ccc4c(S(=O)(=O)[O-])cc(S(=O)(=O)[O-])c(N)c4c3O)c(C)c2)ccc1/N=N/c1ccc2c(S(=O)(=O)[O-])cc(S(=O)(=O)[O-])c(N)c2c1O.[Na+].[Na+].[Na+].[Na+] ?
Result string: 1.22

Query string: What Specific Activity, Bilirubin Oxidase from Strain Belonging to Genus Myrothecium value was documented for this compound, O=C1/C(=C2\Nc3ccc(S(=O)(=O)[O-])cc3C2=O)Nc2ccc(S(=O)(=O)[O-])cc21.[Na+].[Na+] ?
Result string: 0.46

Query string: What Specific Activity, Bilirubin Oxidase from Strain Belonging to Genus Myrothecium value was documented for this compound, Cc1cc(C)c(S(=O)(=O)[O-])c(C)c1Nc1ccc(Nc2c(C)cc(C)c(S(=O)(=O)[O-])c2C)c2c1C(=O)c1ccccc1C2=O.[Na+].[Na+] ?
Result string: 0.39

Query string: What Specific Activity, Bilirubin Oxidase from Strain Belonging to Genus Myrothecium value was documented for this compound, Nc1c(S(=O)(=O)[O-])cc(Nc2cccc(S(=O)(=O)CCOS(=O)(=O)[O-])c2)c2c1C(=O)c1ccccc1C2=O.[Na+].[Na+] ?
Result string: −0.18

Query string: What Specific Activity, Bilirubin Oxidase from Strain Belonging to Genus Myrothecium value was documented for this compound, CCN(CC)c1ccc(C(=C2C=CC(=[N+](CC)Cc3cccc(S(=O)(=O)[O-])c3)C=C2)c2ccc(N(CC)Cc3cccc(S(=O)(=O)[O-])c3)cc2)cc1.[Na+] ?
Result string: −0.40

Where do these numbers come from? They come from patent US20050170485A1.
